The measurements presented in this section are drawn from PubChem BioAssay (NCI).

# assay-procedure: NCI Yeast Anticancer Drug Screen. Data for the mlh1 rad18 strain (AID 175)
# experimental-parameters: S. cerevisiae mlh1 rad18 strain growth inhibition; at 50.0 µM; active compounds read high
The panel holds about 79,000 compounds, 15% with a hit somewhere; the sample as a whole holds those more often.
Give growth inhibition for every item shown.
Answers are plain numbers, in %.

Below are worked cases with known answers.
CC(=O)N(C)c1cccc2ccccc12 ... 5.2
COc1ccc(-c2cc(-c3ccccc3)nc(/N=C\c3ccccc3)n2)c(O)c1 ... -51.2
COc1cccc(-c2cc(=O)c3cc(OC)ccc3[nH]2)c1 ... -13.3
Cc1ccc(C=C(C(=O)O)C(=O)O)o1 ... -56.2
CCOC(=O)c1ccc(-n2nc(C)cc(Cl)c2=O)cc1 ... -4.8

Give me growth inhibition for each of these compounds, listed below.
1. Cc1ccc2nc(-c3ccc(N=NNc4ccc(-c5nc6ccc(C)c(S(=O)(=O)O)c6s5)cc4)cc3)sc2c1S(=O)(=O)O
2. N#CC(=O)Nc1ccc(F)cc1
3. O=C(c1ccccc1)c1ccc2ccccc2c1C(=O)O
4. CCCCCC(CCCCC)=C(C#N)C(=O)OCC
5. OC1CCCNC1 (stereo not given)
6. O=C(N/N=C/c1cccnc1)C(O)C(O)C(O)C(O)CO (stereo not given)
7. CN(C)S(=O)(=O)C(C(N)=O)c1ccccc1 (stereo not given)

1. 18.6
2. 3.2
3. -17
4. 25.8
5. 30.2
6. 11.9
7. 10.4

====

Please provide measured growth inhibition for the entries that follow.
# assay-procedure: NCI Yeast Anticancer Drug Screen. Data for the cln2 rad14 strain (AID 165);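 also: 0% = growth equal to vehicle treated cultures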
# experimental-parameters: S. cerevisiae cln2 rad14 strain, at 50.0 µM, active compounds read high
About 79,000 compounds went through this panel and 15% of them were active in at least one assay; those are over-represented in the sample as a whole.
Give bare numbers, in %.

OC1(C#CC2(O)CCCC2)CCCC1 ... -8.05
O=C(Oc1ccccc1Cl)C1=C(C(=O)Oc2ccccc2Cl)CCC1 ... -1.45
O=C(Nc1cccc(C(F)(F)F)c1)c1ccco1 ... 3.55
CSc1cnc(N)s1 ... -13.1
O=c1oc2cc(O)ccc2cc1-c1nc2ccccc2o1 ... 14.1

Lab note: each molecule below needs its growth inhibition filled in.
1. O=C(O)/C=C/C(=O)Nc1ccc2c(c1)-c1ccccc1C2=O
2. CCCCCCCCCCCC(=O)OCCS(=O)(=O)CCOC(=O)CCCCCCCCCCC

[5.25, -23.9]

====

# assay-procedure: NCI Yeast Anticancer Drug Screen. Data for the mlh1 rad18 strain (AID 175)
# experimental-parameters: S. cerevisiae mlh1 rad18 strain growth inhibition; at 50.0 µM; active compounds read high
This is part of a sample that, as a whole, favours compounds with a hit. Of some 79,000 tested, about 15% had one in any assay.
reported-property: growth inhibition (%)
Answers are plain numbers, in %.

CCOc1ccc2nc(C)ccc2c1 ... 17.7
Cc1n[nH]c(=S)n1NC=O ... -15.8
O=C(Nc1ccc(C(=O)O)cc1)Nc1cccc(F)c1 ... 13.8
c1ccc(CNCCN(Cc2ccccc2)Cc2ccccc2)cc1 ... 25.7
C1CC[N+]2(CC1)CCCCC2 ... -0.45

Give me growth inhibition for each of these compounds, listed below.
1. CCCC(C)C(=O)O (stereo not drawn)
2. CCCCCCCCCCCCC/C=C/CC(CC(=O)Nc1ccc(-n2c(=O)cc(C)n2C)cc1)C(=O)O (stereo not drawn)
3. Nc1nc2c(ncn2Cc2ccc(Cl)c(Cl)c2)c(=O)[nH]1
4. Cc1ccc(C(C)C)c(OC(=O)NCCCCCCNC(=O)Oc2cc(C)ccc2C(C)C)c1
5. N#CC(CC(=O)c1ccccc1)c1ccc(Cl)cc1 (stereo not drawn)
6. NCCN1CCCCCc2ccccc21
7. Cc1ccc2[nH]c(C)c(C(=O)c3cccnc3)c2c1

1. 19.9
2. 5.65
3. 2.55
4. 9.05
5. -13.7
6. -39.3
7. -8.4

Give the measured growth inhibition of C[C@]12CC=CC(=O)[C@@]1(C)CCC(=O)C2 . 8.1
